The measured values listed here are drawn from patent US8802866B2.

target: UniProt P42338; test: Biochemical PI3Kbeta assay (neomycin SPA, lipid phosphorylation); settings: human recombinant GST-PI3K
Sequence (P42338 whole entry): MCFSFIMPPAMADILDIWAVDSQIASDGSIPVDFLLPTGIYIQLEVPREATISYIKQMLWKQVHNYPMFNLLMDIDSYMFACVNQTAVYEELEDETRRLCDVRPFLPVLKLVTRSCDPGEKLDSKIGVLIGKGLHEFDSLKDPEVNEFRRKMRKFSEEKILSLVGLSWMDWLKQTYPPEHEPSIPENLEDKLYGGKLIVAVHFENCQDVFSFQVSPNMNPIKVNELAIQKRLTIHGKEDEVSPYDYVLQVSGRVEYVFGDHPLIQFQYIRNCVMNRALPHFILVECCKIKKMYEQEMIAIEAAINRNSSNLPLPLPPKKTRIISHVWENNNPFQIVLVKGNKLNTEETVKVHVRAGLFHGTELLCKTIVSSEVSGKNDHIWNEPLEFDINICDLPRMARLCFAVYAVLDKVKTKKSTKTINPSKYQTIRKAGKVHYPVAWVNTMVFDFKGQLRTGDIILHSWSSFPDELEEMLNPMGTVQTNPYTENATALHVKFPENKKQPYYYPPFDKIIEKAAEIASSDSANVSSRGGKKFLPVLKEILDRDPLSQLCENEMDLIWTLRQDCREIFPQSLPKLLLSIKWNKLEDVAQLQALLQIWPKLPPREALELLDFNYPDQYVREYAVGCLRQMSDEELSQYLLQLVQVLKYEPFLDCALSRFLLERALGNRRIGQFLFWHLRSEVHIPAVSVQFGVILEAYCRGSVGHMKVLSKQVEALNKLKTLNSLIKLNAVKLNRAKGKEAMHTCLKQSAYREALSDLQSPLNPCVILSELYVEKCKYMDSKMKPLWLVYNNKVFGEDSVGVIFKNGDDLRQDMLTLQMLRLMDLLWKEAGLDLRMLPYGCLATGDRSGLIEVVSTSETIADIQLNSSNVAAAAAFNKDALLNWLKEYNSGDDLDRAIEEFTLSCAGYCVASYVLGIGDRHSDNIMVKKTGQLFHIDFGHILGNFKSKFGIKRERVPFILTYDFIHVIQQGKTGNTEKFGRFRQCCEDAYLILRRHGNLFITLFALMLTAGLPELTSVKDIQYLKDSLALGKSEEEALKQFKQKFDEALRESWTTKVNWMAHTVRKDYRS
Sequence (P27986 whole entry partner): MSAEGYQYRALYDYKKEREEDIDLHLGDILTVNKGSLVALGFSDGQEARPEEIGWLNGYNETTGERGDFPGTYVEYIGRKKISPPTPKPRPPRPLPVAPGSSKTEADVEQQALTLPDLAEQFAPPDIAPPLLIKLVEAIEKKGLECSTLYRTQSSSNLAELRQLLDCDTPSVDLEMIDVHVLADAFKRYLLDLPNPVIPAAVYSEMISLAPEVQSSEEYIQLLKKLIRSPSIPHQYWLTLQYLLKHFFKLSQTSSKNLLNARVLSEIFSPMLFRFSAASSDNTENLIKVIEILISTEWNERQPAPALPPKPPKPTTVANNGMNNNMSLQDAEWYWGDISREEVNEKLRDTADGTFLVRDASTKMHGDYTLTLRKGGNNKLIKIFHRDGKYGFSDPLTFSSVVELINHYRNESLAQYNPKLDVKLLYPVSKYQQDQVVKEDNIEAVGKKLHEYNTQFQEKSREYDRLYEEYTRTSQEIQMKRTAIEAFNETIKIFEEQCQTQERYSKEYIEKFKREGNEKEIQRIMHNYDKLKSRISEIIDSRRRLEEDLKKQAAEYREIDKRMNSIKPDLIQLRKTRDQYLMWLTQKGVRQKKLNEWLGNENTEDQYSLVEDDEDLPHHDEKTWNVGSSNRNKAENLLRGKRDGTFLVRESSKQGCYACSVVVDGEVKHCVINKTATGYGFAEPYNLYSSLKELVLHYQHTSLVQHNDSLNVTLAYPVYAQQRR
Measurement label: IC50

Q) Lab note: need IC50 with UniProt P42338 for entry CN1CCN(c2ccc(-n3c(-c4cc(-c5cnc6[nH]c(C(F)(F)F)cc6c5)ccn4)cn(C)c3=O)cc2C(F)(F)F)CC1 , please look it up.
A) 0.1 to 10 µM

Q) Please provide the recorded IC50 for Cn1cc(-c2cc(-c3ccc(NS(C)(=O)=O)nc3)ccn2)n(-c2ccc(N3CCNCC3)c(C(F)(F)F)c2)c1=O , tested on UniProt P42338.
A) > 10 µM

Q) State its IC50 on UniProt P42338: CCOC(=O)C(C)(C)c1ccc(-n2c(-c3cc(-c4cnc5ccccc5c4)ccn3)cn(C)c2=O)cc1
A) > 10 µM

Q) Query IC50 on UniProt P42338 for O=c1[nH]cc(-c2cc(-c3cnc4ccccc4c3)ccn2)n1-c1ccc(N2CCNCC2)c(C(F)(F)F)c1
A) 0.1 to 10 µM

Q) Identify the measured IC50 of CNc1ccc(-c2ccnc(-c3cn(C)c(=O)n3-c3ccc(C(C)(C)C#N)cc3)c2)cn1 for UniProt P42338.
A) 0.1 to 10 µM

Q) Missing value: IC50, UniProt P42338, entry COc1cc(-n2c(-c3cc(-c4cnc5[nH]ccc5c4)ccn3)cn(C)c2=O)ccc1Cl . Fill in?
A) 0.1 to 10 µM

Q) Reported IC50 for UniProt P42338, given Cn1cc(-c2cc(-c3ccncc3)ccn2)n(-c2ccc(C(C)(C)C#N)cc2)c1=O ?
A) > 10 µM

Q) Report IC50 for Cn1cc(-c2cc(-c3cnc4[nH]ccc4c3)ccn2)n(-c2ccccc2C(F)(F)F)c1=O tested on UniProt P42338.
A) 0.1 to 10 µM

Q) Checklist item: IC50 tested on UniProt P42338, entry Cn1cc(-c2cc(-c3ccc(N)nc3)ccn2)n(-c2ccc(N3CCNCC3)c(C(F)(F)F)c2)c1=O , value?
A) 0.1 to 10 µM

Q) Form field: IC50 recorded for CC(C)(CN)c1ccc(-n2c(-c3cc(-c4cnc5ccccc5c4)ccn3)c[nH]c2=O)cc1 with UniProt P42338 (enter value)
A) 0.1 to 10 µM

Q) Provide value of IC50 for this record tested with UniProt P42338: Cn1cc(-c2cc(-c3ccc4[nH]ccc4c3)ccn2)n(-c2ccc(C(C)(C)C#N)cc2)c1=O
A) > 10 µM

Q) Entry Cc1nc2cc(-c3ccnc(-c4cn(C)c(=O)n4-c4ccc(C(C)(C)C#N)cc4)c3)cnc2[nH]1 , system UniProt P42338: what IC50 was measured?
A) 0.1 to 10 µM

Q) Please provide the recorded IC50 for Cn1cc(-c2cc(-c3ccc(N)nc3)ccn2)n(-c2ccc(C(C)(C)C#N)cc2)c1=O , tested on UniProt P42338.
A) 0.1 to 10 µM

Q) Form: Entry = Cn1cc(-c2cc(-c3cccnc3)ccn2)n(-c2ccc(C(C)(C)C#N)cc2)c1=O | System = UniProt P42338 | IC50 = ____
A) 0.1 to 10 µM

Q) Record lookup: for UniProt P42338, what IC50 belongs to Cc1cccc(-n2c(-c3cc(-c4cnc5[nH]ccc5c4)ccn3)cn(C)c2=O)c1 ?
A) 0.1 to 10 µM
